Test system: BDF1 mice, B16 melanoma ip, median survival T/C
Assay: NCI In Vivo Anticancer Drug Screen. Data for tumor model B16 Melanoma (intraperitoneal) in B6D2F1 (BDF1) mice
Settings: endpoint: median survival time; dose: 400.0 mg/kg/injection; schedule: Q01DX009 (ip); vehicle: saline; higher = longer survival
Procedure: The antitumor activity of compounds was measured in mice bearing transplantable tumors. Survival or tumor size were measured and the results are expressed as the measurement made in the treated group (T) divided by the measurement made in the vehicle treated control group (C). The tumor model used in this assay is B16 Melanoma (intraperitoneal) in B6D2F1 (BDF1) mice
Toxic doses and inconclusive results are not listed. Square brackets hold non-standard residues; d marks the D form. Peptide text beside a SMILES is read from it. * marks the point of attachment. ξ: configuration not given here. ξF = NC(Cc1ccccc1)C(=O)O; Boc = CC(C)(C)OC(=O)*; ξP = O=C(O)C1CCCN1
recorded metric: T/C

Solved cases (10 shown):
# molecule, T/C
measured = [
    ("CC(=O)CCCc1ccccc1", "98 % of control"),
    ("O=C1Nc2ccc(Cl)cc2C(c2ccccc2)=NC1O (stereo unspecified)", "89 % of control"),
    ("CC(C)C1NC(=O)NC1=O (stereo unspecified)", "100 % of control"),
    ("O=C(CCl)N1c2ccccc2Oc2cc3ccccc3cc21", "109 % of control"),
    ("CNCC(O)c1ccc(O)cc1 (stereo unspecified)", "110 % of control"),
    ("OC1COCOC1 (tested in a mixture with another compound)", "106 % of control"),
    ("NC(Cc1cc(I)c(O)c(I)c1)C(=O)O (stereo unspecified)", "100 % of control"),
    ("c1ccc2cc3c(cc2c1)Cn1c-3nc2ccccc21", "110 % of control"),
    ("c1ccc(COB(OCc2ccccc2)OCc2ccccc2)cc1", "87 % of control"),
    ("CCC(CC)(CO)CO", "97 % of control"),
]

Task: API: value(readout=T/C, system=BDF1 mice, B16 melanoma ip, median survival T/C) for record COCCN1CCC(C)(CO)C1 (stereo unspecified)
Result: 93 % of control

Task: API: value(readout=T/C, system=BDF1 mice, B16 melanoma ip, median survival T/C) for record Cc1c(NCO)c(=O)n(-c2ccccc2)n1C
Result: 91 % of control

Task: API: value(readout=T/C, system=BDF1 mice, B16 melanoma ip, median survival T/C) for record NCC(=O)NCC(=O)NC(Cc1ccccc1)C(=O)O (stereo not drawn) (H-Gly-Gly-[ξF]-OH)
Result: 93 % of control

Task: API: value(readout=T/C, system=BDF1 mice, B16 melanoma ip, median survival T/C) for record NC(CCC(=O)O)C(=O)NC(CCC(=O)O)C(=O)O (stereo not drawn) (H-Glu-Glu-OH; configuration not given here)
Result: 91 % of control

Task: API: value(readout=T/C, system=BDF1 mice, B16 melanoma ip, median survival T/C) for record COC(=O)C1CCCN1C(=O)CNC(=O)OC(C)(C)C (stereo not drawn) (Boc-Gly-[ξP]-OMe)
Result: 88 % of control

Task: API: value(readout=T/C, system=BDF1 mice, B16 melanoma ip, median survival T/C) for record O=C(O)CCc1cccnc1
Result: 107 % of control

----------
tested on: BDF1 mice, B16 melanoma ip, median survival T/C; experiment: NCI In Vivo Anticancer Drug Screen. Data for tumor model B16 Melanoma (intraperitoneal) in B6D2F1 (BDF1) mice; settings: endpoint: median survival time; dose: 100.0 mg/kg/injection; schedule: Q04DX003 (ip); vehicle: saline; higher = longer survival
Inconclusive results and toxic doses are left out.
T/C reference

Solved cases (7 shown):
# compound, T/C
records = [
    ("NCC(=O)NC(CO)C(=O)O (stereo not drawn)", "100 % of control"),
    ("COC(=O)C(C)CN1CCCCCC1 (stereo not drawn)", "102 % of control"),
    ("COc1ccc(CCN2CCCC2C(=O)O)cc1OC (stereo not drawn)", "100 % of control"),
    ("CCOC(=O)C1(C)OCCO1", "95 % of control"),
    ("c1nnc(NCNc2nncs2)s1", "119 % of control"),
    ("N#[N+]c1c(O)cc(S(=O)(=O)O)c2ccccc12", "95 % of control"),
    ("OCCN(CCO)CN(CO)c1nc(N(CO)CN(CCO)CCO)nc(N(CO)CN(CCO)CCO)n1", "120 % of control"),
]

Field: next compound
Task: Recorded T/C of CC(CCOCC1CO1)OCC1CO1 (stereo not drawn) , please.
Result: 100 % of control

----------
test system: BDF1 mice, B16 melanoma ip, median survival T/C; assay: NCI In Vivo Anticancer Drug Screen. Data for tumor model B16 Melanoma (intraperitoneal) in B6D2F1 (BDF1) mice; conditions: endpoint: median survival time; dose: 3.12 mg/kg/injection; schedule: Q01DX009 (ip); vehicle: Klucel (hydroxypropylcellulose) (HPC); higher = longer survival
Toxic doses and inconclusive results are not listed.
T/C reference

Solved cases (5 shown):
# compound, T/C
rows = [
    ("O=C1N(Cl)C(=O)C(c2ccc(Cl)cc2)(c2ccc(Cl)cc2)N1Cl", "96 % of control"),
    ("O=C1c2ccccc2C(=O)N1CCC[P+](c1ccccc1)(c1ccccc1)c1ccccc1", "102 % of control"),
    ("CCC(=O)NC1=C(N2CC2C)C(=O)C(NC(=O)CC)=C(N2CC2C)C1=O (stereo not drawn)", "102 % of control"),
    ("COC(=O)C1C2CC3c4[nH]c5cc(OC)ccc5c4CCN3CC2CC(OC(=O)c2cc(OC)c(OC)c(OC)c2)C1OC (stereo not drawn)", "105 % of control"),
    ("NC(=O)N1CCN(CCCN2c3ccccc3Sc3cc(Cl)ccc32)CC1", "92 % of control"),
]

Task: Recorded T/C of COc1ccc2nc3cc(Cl)ccc3c(NCCNCCNCCNc3c4ccc(Cl)cc4nc4ccc(OC)cc34)c2c1 , please.
Result: 103 % of control

Task: Recorded T/C of CC[C@@H](C(=O)[C@@H](C)[C@@H](O)[C@H](C)CCc1ccc(C)c(O)c1C(=O)O)[C@H]1O[C@](CC)([C@H]2CC[C@](O)(CC)[C@H](C)O2)C[C@@H]1C , please.
Result: 102 % of control

Task: Recorded T/C of CC[CH2][Pb]([CH2]CC)([CH2]CC)[N]1C(=O)c2ccccc2C1=O , please.
Result: 109 % of control

----------
tested on: BDF1 mice, B16 melanoma ip, median survival T/C; assay: NCI In Vivo Anticancer Drug Screen. Data for tumor model B16 Melanoma (intraperitoneal) in B6D2F1 (BDF1) mice; details: endpoint: median survival time; dose: 25.0 mg/kg/injection; schedule: Q04DX003 (ip); vehicle: saline with Tween-80; higher = longer survival
Toxic doses and inconclusive results are not listed.
recorded metric: T/C

Solved cases (2 shown):
# chemical structure, tested system, T/C
records = [
    ("Brc1ccc(-c2csc(Nc3nc(-c4ccc(Br)cc4)cs3)n2)cc1", "BDF1 mice, B16 melanoma ip, median survival T/C", "97 % of control"),
    ("CCN(CCP(c1ccccc1)c1ccccc1)CCP(c1ccccc1)c1ccccc1", "BDF1 mice, B16 melanoma ip, median survival T/C", "107 % of control"),
]

Task: Recorded T/C of CCN1CSC(=S)N(CC)C1 , please.
Result: 89 % of control

Task: Recorded T/C of O=C(C=C(C(F)(F)F)C(F)(F)F)c1cccc([N+](=O)[O-])c1 , please.
Result: 111 % of control

----------
test system: BDF1 mice, B16 melanoma ip, median survival T/C; assay: NCI In Vivo Anticancer Drug Screen. Data for tumor model B16 Melanoma (intraperitoneal) in B6D2F1 (BDF1) mice; conditions: endpoint: median survival time; dose: 12.0 mg/kg/injection; schedule: Q01DX009 (ip); vehicle: saline with Tween-80; higher = longer survival
Toxic doses and inconclusive results are not listed.
T/C reference

# compound, tested system, T/C
rows = [
    ("CC(C)C(=O)[O][Sn]([c]1ccccc1)([c]1ccccc1)[c]1ccccc1", "BDF1 mice, B16 melanoma ip, median survival T/C", "124 % of control"),
    ("O=S(=O)(O)SCCNCCCCCC1CCCCC1", "BDF1 mice, B16 melanoma ip, median survival T/C", "100 % of control"),
    ("O=C(NC(=O)C(Cl)Cl)OC1c2cc(Cl)ccc2-c2c(Cl)cc(Cl)cc21 (centres undefined)", "BDF1 mice, B16 melanoma ip, median survival T/C", "86 % of control"),
]

Field: next compound
Task: API: value(readout=T/C, system=BDF1 mice, B16 melanoma ip, median survival T/C) for record CC(=O)Nc1c(Cl)c(Cl)c2c(c1Cl)Cc1cc(Br)ccc1-2
Result: 92 % of control
